Values from patent US20240228489A1

- target.under.test: human mAChR M1 (Homo sapiens, UniProt P11229)
- assay.notes: mAChR M1 cell-based functional assay (calcium mobilization), PAM mode: increase in the EC20 acetylcholine response
measured.property: EC50 (nM)

>>> print(df.to_string())
                                   compound                         target_under_test  observed
0  [2H]C1([2H])c2ncccc2C(=O)N1Cc1c(F)cc(-c2ccc(OC3CC3)c3nn(C([2H])([2H])[2H])cc23)cc1F [Compound 183]  human mAChR M1 (Homo sapiens, UniProt P11229)       535
1  [2H]C1([2H])c2ncccc2C(=O)N1Cc1c(F)cc(-c2ccc(F)c3nn(C)cc23)cc1Cl [Compound 164]  human mAChR M1 (Homo sapiens, UniProt P11229)       476
2  [2H]C1([2H])c2ncccc2C(=O)N1Cc1ccc(-c2ccc3nn(C)cc3c2)cc1 [Compound 12]  human mAChR M1 (Homo sapiens, UniProt P11229)      1230
3  [2H]C1([2H])c2ncccc2C(=O)N1Cc1ccc(-c2cc3cn(C)nc3cc2F)cc1 [Compound 15]  human mAChR M1 (Homo sapiens, UniProt P11229)      1770

====

- target.under.test: human mAChR M1 (Homo sapiens)
- Sequence (P11229 1-460): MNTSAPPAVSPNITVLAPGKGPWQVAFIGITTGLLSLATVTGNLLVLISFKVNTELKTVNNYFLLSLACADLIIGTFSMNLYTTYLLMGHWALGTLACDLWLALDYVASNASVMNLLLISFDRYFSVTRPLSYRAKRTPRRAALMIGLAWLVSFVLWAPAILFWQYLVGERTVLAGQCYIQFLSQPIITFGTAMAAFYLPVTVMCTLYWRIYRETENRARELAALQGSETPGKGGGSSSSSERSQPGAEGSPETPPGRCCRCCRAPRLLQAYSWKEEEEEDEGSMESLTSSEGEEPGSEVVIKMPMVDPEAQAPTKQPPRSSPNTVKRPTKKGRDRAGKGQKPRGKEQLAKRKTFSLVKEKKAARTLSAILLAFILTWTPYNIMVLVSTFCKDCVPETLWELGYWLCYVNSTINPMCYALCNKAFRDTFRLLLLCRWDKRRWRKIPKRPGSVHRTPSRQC
- assay.notes: mAChR M1 cell-based functional assay (calcium mobilization), agonist mode: compound alone, Emax relative to acetylcholine maximum
- reported.conditions: relative to the maximum for acetylcholine
measured.property: Emax (%)

                                        mol  measured_property  result_unit  observed
0  [2H]C1([2H])c2ncccc2C(=O)N1Cc1c(C)cc(-c2ccc(F)c3nn(C([2H])([2H])[2H])cc23)cc1F               Emax            %         6
1  [2H]C1([2H])c2ncccc2C(=O)N1Cc1c(F)cc(-c2ccc3nn(C)cc3c2)cc1C1CC1               Emax            %        11
2  [2H]C1([2H])c2ncccc2C(=O)N1Cc1ccc(-c2ccc(F)c3nn(C)cc23)cc1C               Emax            %         9
3  [2H]C1([2H])c2ncccc2C(=O)N1Cc1c(F)cc(-c2ccc(OC)c3nn(C([2H])([2H])[2H])cc23)cc1F               Emax            %         8
